Cited source: PubChem BioAssay

# assay overview: E. coli growth modulation, two-sided OD650, primary screen, E. coli filamentation project, strain DRC41, 24 h (AID 1093);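 further: MC1000 strain lacking acrAB efflux and sulA so SOS filamentation is blocked; test concentration not given here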
# stated conditions: OD650, 24 h, higher = more signal, called active from +8 up or from −8 down
Recorded z-score, one value per entry.

{"columns": ["compound", "z-score"],
 "data": [
  ["Nc1cc(Br)ccc1C(=O)O", -1.2],
  ["O=C1N[C@@H](Cc2ccccc2)C(=O)N2[C@@H]1C[C@@H](C(=O)O)[C@H]2c1ccc(O)cc1", 1.54],
  ["NCCCCCNC(=O)[C@@H]1C[C@@H]2C(=O)N3CCC[C@H]3C(=O)N2[C@@H]1c1ccc(O)cc1", 1.05],
  ["CCOC(=O)C[C@H]1[C@H](OC(=O)c2ccc(-c3ccccc3)cc2)[C@@H](NC(=O)Cc2ccc(OC)cc2)c2cc(OCCCO)ccc2N1C(=O)Cc1ccc(OC)cc1", 1.3],
  ["CN1C(=O)C2C=CC(C(O)c3ccc(F)cc3)N(NC(=O)OC(C)(C)C)C2C1=O (centres undefined)", -1.31],
  ["CN1C(=O)C2C=CC(C(O)c3ccc(I)cc3)N(Nc3ccccc3)C2C1=O (centres undefined)", -1.78],
  ["Cc1ccc([C@H]2C(C(=O)O)=C[C@@H](C(C)(C)C)N2S(=O)(=O)c2ccc(C)cc2)cc1", -1.01],
  ["O=C1C2C=CC(C(O)c3ccco3)N(Nc3ccccc3)C2C(=O)N1c1ccccc1 (centres undefined)", -0.353],
  ["[N-]=[N+]=NCc1ccccc1[C@H]1OC(c2ccc(OCCCO)cc2)=N[C@@]1(Cc1ccccc1)C(=O)NCCN1CCOCC1", 1.12]
]}

----------
Recorded composite z-score, one value per entry.
# test target: Carbonic anhydrase 2 (Homo sapiens) (UniProt P00918)
# assay overview: CAII small-molecule binders, profiling panel, biochemical, small-molecule microarray, Alexa647-labelled CAII (AID 1122)
# stated conditions: CAII-A647 binding fluorescence, higher = more signal

{"columns": ["compound", "composite z-score"],
 "data": [
  ["CC1(C)C(=O)C(c2ccccc2)=C2CN3C(=O)N(CCc4ccccc4)C(=O)C3(Cc3ccc(C(F)(F)F)cc3)C=C21 (stereo unspecified)", 0.581],
  ["COc1cc(C(O)C2C=CC3C(=O)N(Cc4ccccc4)C(=O)C3N2n2cnnc2)cc(OC)c1OC (stereo unspecified)", 0.686],
  ["C=CCN1C(=O)[C@]2(O[C@H](CCO)[C@@H]([Si](C)(C)c3ccc(OC)cc3)[C@@H]2C)c2cc(N3C(=O)COc4ccccc43)ccc21", 0.418],
  ["COCCCNC(=O)[C@@]1(c2ccc([N+](=O)[O-])cc2)CC(=O)N(C(C)C)[C@@H]1c1ccc(CO)cc1", 0.729],
  ["COC(=O)C(CC#Cc1ccc2c(c1)[C@]1(C(=O)N2)[C@H](c2ccc(OCCO)cc2)N2[C@H](c3ccccc3)[C@H](c3ccccc3)OC(=O)[C@H]2[C@@H]1C(=O)N1CCN(c2ncccn2)CC1)C(=O)OC", 0.62],
  ["CN1C(=O)C2C=CC(C(O)c3ccc(F)cc3)N(NC(=O)OC(C)(C)C)C2C1=O (stereo unspecified)", 0.695],
  ["O=C1O[C@H](c2ccccc2)[C@H](c2ccccc2)N2[C@H]1[C@@H](C(=O)N1CCCCCCC1)[C@]1(C(=O)Nc3ccc(C#CC4(O)CCCCCC4)cc31)[C@H]2c1ccccc1OCCO", 1.02],
  ["O=C1C2C=CC(C(O)c3cc(C(F)(F)F)cc(C(F)(F)F)c3)N(Nc3ccccc3F)C2C(=O)N1c1ccccc1 (stereo unspecified)", 0.752],
  ["[N-]=[N+]=Nc1ccccc1C[C@]1(C(=O)O)N=C(c2ccc(OCCCO)cc2)O[C@H]1c1ccccc1N=[N+]=[N-]", 0.57],
  ["C=C(CCCC)C(=O)CC[C@H](OC(=O)c1ccccc1-c1ccccc1C(=O)O)c1ccccc1OCCO", 0.693],
  ["CCCCC=C[C@@H](NC(=O)c1ccccc1)c1ccccc1", 0.561],
  ["C=C(/C(=C/C[C@H](OC(=O)c1ccncc1)c1cccc(OCCO)c1)c1cnc2ccccc2c1)C(C)C", 0.942],
  ["CCCNC(=O)[C@@]1(Sc2ccc(C)cc2)CC(=O)N(C2CCCCC2)[C@@H]1c1ccc(CO)cc1I", 0.439],
  ["COc1ccc([Si](C)(C)[C@@H]2[C@@H](CCn3cc([C@H](O)c4ccccc4)nn3)O[C@]3(C(=O)N(c4ccccc4)c4ccccc43)[C@H]2C)cc1", 0.0028],
  ["C=C(CCCC)C(=O)CC[C@H](OC(C)=O)c1ccc(OCCO)cc1", -0.43],
  ["[N-]=[N+]=Nc1ccccc1C[C@]1(C(=O)O)N=C(c2ccc(OCCCO)cc2)O[C@H]1c1ccccc1", 0.601],
  ["Cc1c(NC(=O)/C(C#N)=C/c2ccccc2Cl)c(=O)n(-c2ccccc2)n1C", 0.704],
  ["COCC(=C=CC[C@@H](O)c1ccc(OCCO)cc1)CCO", 0.838],
  ["COc1ccc(C#Cc2ccc3c(c2)[C@]2(C(=O)N3)[C@H](C(=O)Nc3nc4ccccc4s3)[C@H]3C(=O)O[C@H](c4ccccc4)[C@H](c4ccccc4)N3[C@@H]2c2ccccc2OCCO)cc1", 0.564],
  ["COC(=O)C(CC#Cc1ccc2c(c1)[C@]1(C(=O)N2)[C@H](C(=O)Nc2nc3ccccc3s2)[C@H]2C(=O)O[C@H](c3ccccc3)[C@H](c3ccccc3)N2[C@@H]1c1ccc(OCCO)cc1)C(=O)OC", 0.553],
  ["COc1ccc(C(O)C2C=CC3C(=O)N(c4ccccc4)C(=O)C3N2Nc2ccc(C(C)C)cc2)c2ccccc12 (stereo unspecified)", 0.725],
  ["[N-]=[N+]=NCc1ccccc1C[C@]1(C(=O)N2CCOCC2)COC(c2ccc(OCCCO)cc2)=N1", 0.71],
  ["COCCOC(=O)N1C(=O)[C@@]2(c3ccccc31)[C@H](c1ccc(OCCO)cc1)N1[C@H](c3ccccc3)[C@H](c3ccccc3)OC(=O)[C@H]1[C@@H]2C(=O)N1CCCCCCC1", 1.08],
  ["CS(=O)(=O)CCOC(=O)C1=CC(CCCO)=CC(C2CC2)N(Cc2cccc(OC(F)(F)F)c2)C=C1C(=O)OCCS(C)(=O)=O (stereo unspecified)", 0.751],
  ["COc1cc(CO)cc(I)c1O[C@H]1C=C(C(=O)NCCO)C[C@@H](NCC2CCCCC2)[C@@H]1O", 0.681],
  ["C[C@]1(C(=O)NCC(F)(F)F)c2ccccc2C(=O)N(Cc2ccccc2)[C@H]1c1ccc(CO)cc1", 0.448],
  ["CC1CC/C=C\\[C@H]2OC34C=CCN(CCN5CCOCC5)C(=O)[C@H]3N(C(C)CO)C(=O)[C@@H]4C2C(=O)O1 (stereo partly specified)", 0.738],
  ["CC(C)C(=C=CC[C@H](O)c1cccc(OCCO)c1)CCO", 0.512],
  ["CC=CC(O)C1C=CC2C(=O)NC(=O)C2N1Nc1ccccn1 (stereo unspecified)", 0.463],
  ["CCCC=C(CCC)[C@@H](NC(=O)CCc1ccccc1)c1ccc(C(F)(F)F)cc1", 0.58],
  ["C[C@@]12COC[C@]13C=C(Br)[C@H](C2)[C@@]1(CO1)C3=O", -0.643]
]}
